Molecular target: T1, human IL-2Rβγc on human cells (YT-1 NK cells) (human, UniProt P14784 27-551; P31785 23-369)
T1 sequence (looked up) 1: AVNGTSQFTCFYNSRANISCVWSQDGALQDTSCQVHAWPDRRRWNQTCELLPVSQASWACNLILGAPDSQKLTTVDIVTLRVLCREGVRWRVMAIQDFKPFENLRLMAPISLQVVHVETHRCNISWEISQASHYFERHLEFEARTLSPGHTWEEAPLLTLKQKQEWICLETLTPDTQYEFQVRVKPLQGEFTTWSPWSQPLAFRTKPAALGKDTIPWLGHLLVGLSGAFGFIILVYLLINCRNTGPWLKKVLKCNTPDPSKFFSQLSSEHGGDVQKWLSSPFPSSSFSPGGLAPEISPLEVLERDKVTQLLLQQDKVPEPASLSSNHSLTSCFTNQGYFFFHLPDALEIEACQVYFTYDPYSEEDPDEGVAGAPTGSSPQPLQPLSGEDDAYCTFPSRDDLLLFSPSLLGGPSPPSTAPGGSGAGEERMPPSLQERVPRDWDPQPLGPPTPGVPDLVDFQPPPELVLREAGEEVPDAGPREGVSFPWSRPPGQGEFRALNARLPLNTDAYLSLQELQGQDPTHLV
T1 sequence (looked up) 2: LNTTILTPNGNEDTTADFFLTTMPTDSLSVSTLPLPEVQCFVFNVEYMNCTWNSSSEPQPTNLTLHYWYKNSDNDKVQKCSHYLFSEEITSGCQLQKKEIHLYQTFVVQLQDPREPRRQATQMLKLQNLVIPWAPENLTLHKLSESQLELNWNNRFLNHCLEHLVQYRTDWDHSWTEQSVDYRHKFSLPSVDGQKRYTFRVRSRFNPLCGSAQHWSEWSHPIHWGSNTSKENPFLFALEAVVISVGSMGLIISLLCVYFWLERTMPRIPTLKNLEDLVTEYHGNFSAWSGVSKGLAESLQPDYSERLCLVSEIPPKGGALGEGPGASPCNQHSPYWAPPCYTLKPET
Experiment: cell-based or functional assay
reported.metric: EC50 (CD25-) pSTAT5p, human NK (YT, CD25-) cells

Sample answers from the record:
G1_neo2_40 (designed binder, also called G1_ne02_40) STKKLQLQAEHALLDAQMMLNRSPEPNEKLNRIITTMQSWISTGKIDLDGAKELAKEVEELRQEAEKRGIDVRDLASNLKVILLELA : 0.14 nM
G1_neo2_43 (designed binder, Single-disulfide stapled variation; In yeast display between Aga2 and a myc tag; also called G1_ne02_43) STKKIQLQLEHALLDVQMALNRSPEPNESLNRMITWLQSCISTGKCDLDNAQEMAKEAEKIRKEMEKRGIDVRDLISNIIVILLELS : 0.21 nM
mouse interleukin-2 (mIL-2) (ligand, UniProt P04351 21-169, looked up, range 1-149; Baculovirus expression for SPR; also called MmIL-2; mouse IL-2) APTSSSTSSSTAEAQQQQQQQQQQQQHLEQLLMDLQELLSRMENYRNLKLPRMLTFKFYLPKQATELKDLQCLEDELGPLRHVLDLTQSKSFQLEDAENFISNIRVTVVKLKGSDNTFECQFDDESATVVDFLRRWIAFCQSIISTSPQ : 39 nM
G2_neo2_40_1F_dsn36 (designed binder, E. coli, N-terminal 6xHis tag and thrombin site) PKKKIQLLAEHALLDALMILNIVKTNSQNAEEKLEDYASNVEVILEEIARLMESGDQKDEAEKAKRMKEWMKRIKTTASEDEQEEMANRIITLLQSWIFS : 0.12 nM
G1_neo2_41 (designed binder, Single-disulfide stapled variation; In yeast display between Aga2 and a myc tag; also called G1_ne02_41) STKKLQLQAEHALLDAQMMLNRSPEPNEKLNRIITTMQSCISTGKCDLDGAKELAKEVEELRQEAEKRGIDVRDLASNLKVILLELA : 70 pM

Turning now to a further record.
Data request: What does the record list as EC50 (CD25-) pSTAT5p, human NK (YT, CD25-) cells for G1_neo2_40_1F (designed binder, also called G1_ne02_40_1F) STKKTQLLAEHALLDALMMLNLLPEPNEKLNRIITTMQSWIFTGKIDGDGAQELAKEVEELEQEHEKRGIDVEDYASNLKVILLELA ?
Data returned: 90 pM
